biological target: Sodium-dependent serotonin transporter (Homo sapiens, UniProt P31645); test: Displacement of [125I]RTI-55 from SERT
// classify: if (Ki < 80 nM) condition met else condition not met

compound_structure | class_name
O[C@@H](Cc1ccccc1)CN1CCC(CCOC(c2ccccc2)c2ccccc2)CC1 | condition not met
N[C@H](Cc1ccccc1)CN1CCC(CCOC(c2ccc(F)cc2)c2ccc(F)cc2)CC1 | condition met
N[C@@H](Cc1ccccc1)CN1CCC(CCOC(c2ccc(F)cc2)c2ccc(F)cc2)CC1 | condition met
Fc1ccc(C(OCCC2CCN(C[C@H]3C[C@@H]3c3ccccc3)CC2)c2ccc(F)cc2)cc1 | condition not met
Fc1ccc(C(OCCC2CCN(C[C@@H]3C[C@H]3c3ccccc3)CC2)c2ccc(F)cc2)cc1 | condition met

Record "O[C@@H](CCN1CCC(CCOC(c2ccccc2)c2ccccc2)CC1)c1ccccc1" : is its Ki strictly below 80 nM?
condition not met

And then "C[C@@H](Cc1ccccc1)CN1CCC(CCOC(c2ccc(F)cc2)c2ccc(F)cc2)CC1" , what is it?
condition not met

Similarly, "O[C@H](CCc1ccccc1)CN1CCC(CCOC(c2ccc(F)cc2)c2ccc(F)cc2)CC1" ?
condition met

----------
target: Sodium-dependent dopamine transporter (Homo sapiens, UniProt Q01959); test: Displacement of [125I]RTI-55 from DAT
parameter: pKi
Kindly note that pKi refers to -log10 of the concentration in mol/L and answer with the value alone.

Reference set, count: 4
compound_structure | target_or_system | reported
Fc1ccc(C(OCCC2CCN(C[C@@H]3C[C@H]3c3ccccc3)CC2)c2ccc(F)cc2)cc1 | Sodium-dependent dopamine transporter (Homo sapiens, UniProt Q01959) | 9.30
Fc1ccc(C(OCCC2CCN(CC3=Cc4ccccc4CC3)CC2)c2ccc(F)cc2)cc1 | Sodium-dependent dopamine transporter (Homo sapiens, UniProt Q01959) | 8.96
O[C@H](Cc1ccccc1)CN1CCC(CCOC(c2ccccc2)c2ccccc2)CC1 | Sodium-dependent dopamine transporter (Homo sapiens, UniProt Q01959) | 8.16
O[C@H](CCN1CCC(CCOC(c2ccccc2)c2ccccc2)CC1)c1ccccc1 | Sodium-dependent dopamine transporter (Homo sapiens, UniProt Q01959) | 8.74

Now for the compound whose pKi we want.
Query pKi on Sodium-dependent dopamine transporter (Homo sapiens, UniProt Q01959) for "C[C@H](Cc1ccccc1)CN1CCC(CCOC(c2ccc(F)cc2)c2ccc(F)cc2)CC1"
9.05

----------
Listing of recorded Ki by entry.
target: Sodium-dependent dopamine transporter (Homo sapiens); assay: Displacement of [125I]RTI-55 from DAT
Your answer should be a plain number; it is taken to be in nM.

compound_structure | reported
O[C@@H](CCc1ccccc1)CN1CCC(CCOC(c2ccc(F)cc2)c2ccc(F)cc2)CC1 | 1.6
O[C@H](Cc1ccccc1)CN1CCC(CCOC(c2ccc(F)cc2)c2ccc(F)cc2)CC1 | 5.1
N[C@H](Cc1ccccc1)CN1CCC(CCOC(c2ccc(F)cc2)c2ccc(F)cc2)CC1 | 12
C[C@@H](CCN1CCC(CCOC(c2ccc(F)cc2)c2ccc(F)cc2)CC1)c1ccccc1 | 1.3

Record request: Ki value, item "O[C@@H](Cc1ccccc1)CN1CCC(CCOC(c2ccccc2)c2ccccc2)CC1"
1.4

----------
target: Monoamine transporters; serotonin & dopamine (Homo sapiens) (UniProt P31645+Q01959); assay: Selectivity for SERT over DAT; assay type: protein assay
Sequence (P31645 whole entry, looked up): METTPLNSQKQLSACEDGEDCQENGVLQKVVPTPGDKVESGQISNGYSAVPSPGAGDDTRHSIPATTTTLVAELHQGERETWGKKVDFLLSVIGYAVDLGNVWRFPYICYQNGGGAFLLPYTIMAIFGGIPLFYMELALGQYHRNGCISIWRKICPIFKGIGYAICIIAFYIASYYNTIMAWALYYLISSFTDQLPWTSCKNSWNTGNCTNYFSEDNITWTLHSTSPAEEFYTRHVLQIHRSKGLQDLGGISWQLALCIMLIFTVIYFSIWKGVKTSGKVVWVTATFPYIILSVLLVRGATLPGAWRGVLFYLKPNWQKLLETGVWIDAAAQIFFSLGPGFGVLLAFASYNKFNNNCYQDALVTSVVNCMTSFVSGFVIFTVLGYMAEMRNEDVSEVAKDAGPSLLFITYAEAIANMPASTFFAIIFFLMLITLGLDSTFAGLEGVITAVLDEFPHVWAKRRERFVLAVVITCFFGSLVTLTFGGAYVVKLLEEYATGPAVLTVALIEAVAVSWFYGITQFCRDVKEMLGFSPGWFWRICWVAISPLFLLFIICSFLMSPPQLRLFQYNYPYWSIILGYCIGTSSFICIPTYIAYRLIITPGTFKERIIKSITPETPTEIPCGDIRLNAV
Sequence (Q01959 whole entry, looked up): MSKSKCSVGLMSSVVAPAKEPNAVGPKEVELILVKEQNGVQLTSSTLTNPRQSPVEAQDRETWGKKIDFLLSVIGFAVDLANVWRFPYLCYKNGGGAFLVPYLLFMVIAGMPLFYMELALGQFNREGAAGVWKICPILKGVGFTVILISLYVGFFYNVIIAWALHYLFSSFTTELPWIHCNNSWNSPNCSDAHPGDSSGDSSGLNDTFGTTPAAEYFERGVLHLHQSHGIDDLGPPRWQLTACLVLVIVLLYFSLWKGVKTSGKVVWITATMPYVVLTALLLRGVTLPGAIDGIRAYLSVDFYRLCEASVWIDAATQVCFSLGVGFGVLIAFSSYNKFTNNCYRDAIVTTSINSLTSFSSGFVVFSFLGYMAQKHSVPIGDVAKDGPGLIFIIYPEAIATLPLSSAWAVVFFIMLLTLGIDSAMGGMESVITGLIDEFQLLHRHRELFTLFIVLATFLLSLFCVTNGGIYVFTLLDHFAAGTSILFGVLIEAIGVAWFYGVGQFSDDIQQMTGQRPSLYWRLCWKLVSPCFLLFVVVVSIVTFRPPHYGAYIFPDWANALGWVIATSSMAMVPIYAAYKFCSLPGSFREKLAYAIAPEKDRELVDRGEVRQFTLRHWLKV
Classify: y when Ratio Ki is strictly less than 60; n when Ratio Ki is not.

Item "C[C@H](CCN1CCC(CCOC(c2ccc(F)cc2)c2ccc(F)cc2)CC1)c1ccccc1" : Ratio Ki beneath 60, strictly?
y

Entry to check: "O[C@@H](Cc1ccccc1)CN1CCC(CCOC(c2ccccc2)c2ccccc2)CC1"
n

Check "O[C@H](Cc1ccccc1)CN1CCC(CCOC(c2ccccc2)c2ccccc2)CC1" too.
y
